Biological target: PIK3CG (human)
Assay: Enzyme Assay
value.type: IC50 (µM)

Cc1nc(N)nc(N2CCC[C@H]2c2nc3cccc(OC(F)F)c3c(=O)n2-c2ccccc2)c1C#N ... 0.07

A. N#Cc1c(N)nc(N)nc1N1CCC[C@H]1c1nc2cccc(C(F)(F)F)c2c(=O)n1-c1ccccc1
B. CO[C@H]1C[C@@H](c2nc3cccc(C(F)(F)F)c3c(=O)n2N2CCOCC2)N(c2ncnc(N)c2C#N)C1
C. N#Cc1cnc(N)nc1N1C[C@@H](O)C[C@H]1c1nc2cccc(C(F)(F)F)c2c(=O)n1-c1ccccc1
Rank the items in ascending order with respect to IC50. Output spec: labels arranged per the requested ranking.
A, C, B

Data provenance is the Kinase Knowledgebase extract (Sharma et al. 2016).
